Recorded IC50 values for a group of molecules are listed next.
Tested on: vaccinia virus
Protocol summary: microbe, parasite or virus in culture
Assay type: cell-based
Protocol conditions: Orthopoxvirus vaccinia, HSF, 72 h, read-out: ID50 Vaccinia (HSF)
Numbers only here, please. The scale is µg/mL.

Worked examples follow.
>  <Molecule>
O=c1[nH]c(=O)n([C@H]2C[C@H](O)[C@@H](CO)O2)cc1I

>  <Tgt>
vaccinia virus

>  <IC50 (µg/mL)>
0.2

$$$$
>  <Molecule>
C=Cc1cn([C@H]2C[C@H](O)[C@@H](CO)O2)c(=O)[nH]c1=O

>  <Tgt>
vaccinia virus

>  <IC50 (µg/mL)>
0.1

$$$$
>  <Molecule>
C=C(Cl)c1cn([C@H]2C[C@H](O)[C@@H](CO)O2)c(=O)[nH]c1=O

>  <Tgt>
vaccinia virus

>  <IC50 (µg/mL)>
0.7

$$$$
>  <Molecule>
O=c1[nH]c(=O)n([C@H]2C[C@H](O)[C@@H](CO)O2)cc1/C=C/Br

>  <Tgt>
vaccinia virus

>  <IC50 (µg/mL)>
0.7

$$$$

Next:
// query Recorded IC50 for C#Cc1cn([C@H]2C[C@H](O)[C@@H](CO)O2)c(=O)[nH]c1=O with vaccinia virus, please?
// result 0.1

====

Protocol summary: Antimetabolic activity: inhibition of (2-^14 C)UdR incorporation into DNA of PRK cells (Test 3a)
Format: cell-based
Protocol conditions: rabbit, prk cells
Property name: IC50 at 16 h (µg/mL)
Write it as a number; the unit µg/mL goes unstated.

>  <Molecule>
O=c1[nH]c(=O)n([C@H]2C[C@H](O)[C@@H](CO)O2)cc1I

>  <IC50 at 16 h [µg/mL]>
1.2

$$$$

# input for lookup
// query Item C=Cc1cn([C@H]2C[C@H](O)[C@@H](CO)O2)c(=O)[nH]c1=O has what recorded IC50 at 16 h?
// result 8

====

Protocol summary: Antimetabolic activity: inhibition of (methyl-^3 H)TdR incorporation into DNA of PRK cells (Test 3a)
Format: cell-based
Protocol conditions: rabbit, prk cells
Catalogue of compounds with associated IC50 at 16 h
Write the answer as a number in µg/mL, unit excluded.

Please review the following examples before continuing.
>  <Molecule>
O=c1[nH]c(=O)n([C@H]2C[C@H](O)[C@@H](CO)O2)cc1I

>  <IC50 at 16 h (µg/mL)>
2.5

$$$$
>  <Molecule>
C=C(Cl)c1cn([C@H]2C[C@H](O)[C@@H](CO)O2)c(=O)[nH]c1=O

>  <IC50 at 16 h (µg/mL)>
27

$$$$

// query I'd like to know its IC50 at 16 h. The compound in question is C=Cc1cn([C@H]2C[C@H](O)[C@@H](CO)O2)c(=O)[nH]c1=O
// result 20

====

Entries annotated with measured IC50 at 16 h
Protocol summary: Antimetabolic activity: inhibition of (2-^14 C)UdR incorporation into DNA of PRK cells (Test 3a)
Type: cell-based
Protocol conditions: rabbit; PRK cells; 16 hours; read-out: ID50 (2-^14)UdR incorpor. into DNA

>  <Molecule>
O=c1[nH]c(=O)n([C@H]2C[C@H](O)[C@@H](CO)O2)cc1/C=C/Br

>  <IC50 at 16 h>
35 µg/mL

$$$$

Turning to the following compound.
// query # get_value(readout='IC50 at 16 h', item= C#Cc1cn([C@H]2C[C@H](O)[C@@H](CO)O2)c(=O)[nH]c1=O )
// result < 6 µg/mL

====

Protocol summary: Antimetabolic activity: reduction of total cell number of PRK cells (Test 3b)
Protocol conditions: rabbit
Property name: CC50 at 72 h (µg/mL)
Please give a number only; it is taken to be in µg/mL.

// query Which CC50 at 72 h value belongs to C#Cc1cn([C@H]2C[C@H](O)[C@@H](CO)O2)c(=O)[nH]c1=O [2'-deoxy-5-ethynyluridine] ?
// result 0.3
